Reference source for all entries: patent US10633375B2

test: Pharmacokinetics assay in rats after intragastrical administration; assay type: in vivo, Sprague-Dawley (SD) rats; settings: both sexes, Sprague-Dawley, rat, plasma, po; SD rats, intragastric, 2 mg/kg; read-out: Apparent Distribution Volume Vz/F
Lab note: anything with Vd/F at or over 30 L/kg counts as 1; the rest go in 0.

| compound | cat |
| --- | --- |
| COc1cn([C@@H](Cc2ccccc2)C(=O)Nc2ccc(C(=O)O)cc2)c(=O)cc1-c1c(C(C)=O)ccc(Cl)c1F [Example 31] | 0 |
| COc1cn([C@H](CC2CCC2)C(=O)Nc2ccc(C(=O)O)cc2)c(=O)cc1-c1c(C(C)=O)ccc(Cl)c1F [Example 160] | 1 |
| CNC(=O)c1ccc(NC(=O)[C@H](Cc2ccccc2)n2cc(OC)c(-c3cc(Cl)ccc3C(C)=O)cc2=O)cc1 [Example 13] | 0 |
| COc1cn([C@@H](CCOC(C)(C)C)C(=O)Nc2ccc(C(=O)O)cc2)c(=O)cc1-c1cc(Cl)ccc1C(C)=O [Example 111] | 1 |
| COc1cn([C@@H](Cc2ccccn2)C(=O)Nc2ccc(C(=O)O)cc2)c(=O)cc1-c1cc(Cl)ccc1C(C)=O [Example 80] | 0 |
| COc1cn([C@@H](Cc2cccnc2)C(=O)Nc2ccc(C(=O)O)cc2)c(=O)cc1-c1cc(Cl)ccc1C(C)=O [Example 84] | 1 |
| CCC(=O)c1ccc(Cl)cc1-c1cc(=O)n([C@@H](Cc2ccccc2)C(=O)Nc2ccc(C(=O)O)cc2)cc1OC [Example 9] | 1 |
